Tested on: BT-549 breast
Experiment: NCI-60 one-dose screen, 48 h (100 = growth as untreated, 0 = no growth, -100 = all killed)
Details: 10 µM unless noted
The panel holds about 83,000 compounds, 20% with a hit somewhere; the sample as a whole holds those more often.
Entries and their measured growth follow.
Property: growth (%)

• CCOC(=O)C1=C(CCl)N(C)C(=O)NC1c1ccc2c(c1)OCO2 (stereo not given) = 37.8
• COc1cc(C[C@H]2COc3cc(O)cc(O)c3C2=O)ccc1O = 27.8
• Nc1cc(C(=O)O)cc(-n2c(O)c(C=C3N=c4ccccc4=N3)sc2=S)c1 = 103
• Oc1ccc(-c2nc3ccc4[nH]ncc4c3c3c2CCCC3)c(F)c1 = 13.9
• Cc1ccc(S(=O)(=O)c2nc(-c3ccccc3)oc2SCC(N)=O)cc1 = 106
• COCC(=O)Oc1cc(-c2ccc(C)cc2C)c(OC(=O)COC)c(-c2ccc(C)cc2C)c1 = 56.6
• NCCCNc1nc2ccccc2c2c(=O)c3cc(Cl)ccc3sc12 = 83
• CC/C(=C(\c1ccc(Cl)cc1)c1ccc(OCCN2CCCCC2)cc1)c1ccc(O)cc1 = 58.3
• CC(=O)N1N=C(c2ccc(Nc3nc(Nc4ccc(F)cc4)nc(Nc4ccc(F)cc4)n3)cc2)CC1c1ccc(N(C)C)cc1 (stereo not given) = 63.9
• Cc1ccccc1N1CCN(C(=S)c2ccccc2)CC1 = 88.5
